Where these numbers come from: patent US20220298115A1

# experimental_target: human ACSS2 (Homo sapiens)
# Construct: The cytosolic fraction of BT474 cells was used as a source of the ACSS2 enzyme; endogenous in cells; host or cells: BT474 cells (cytosolic fraction)
# assay_protocol: ACSS2 enzyme assay (acetyl-CoA formation, LC-MS/MS)
# Type: biochemical
# stated_conditions: cytosolic fraction of BT474 cells as ACSS2 source; 100 μM acetate, CoA and ATP; 2 h at 25° C.; read-out: Enzyme Activity (IC50 range)
reported_property: IC50

CCC(O)CNC(=O)Nc1ccc2nc(C)c(C)c(C(N)=O)c2c1 (stereo not drawn) [Example 69] : ≤ 10 µM

Answer with the recorded IC50 for the molecule listed here: CCC(O)CNC(=O)Nc1ccc2nc(C)c(-c3cnn(C)c3)cc2c1 (stereo not drawn) [Example 82]
≤ 1 µM

Answer with the recorded IC50 for the molecule listed here: CCC(CNC(=O)Nc1ccc2nc(C)c(-c3ccccc3)cc2c1)NC(C)=O (stereo not drawn) [Example 99]
≤ 1 µM

Answer with the recorded IC50 for the molecule listed here: CC[C@@H](O)CNC(=O)Nc1ccc2nc(-c3ccccc3)c(C)c(C(=O)NCc3ccccc3)c2c1 [Example 104]
< 0.1 µM

====

pIC50 for assorted compounds
# experimental_target: human ACSS2 (Homo sapiens, UniProt Q9NR19)
# Construct: The cytosolic fraction of BT474 cells was used as a source of the ACSS2 enzyme; endogenous in cells
# Sequence (Q9NR19 whole entry): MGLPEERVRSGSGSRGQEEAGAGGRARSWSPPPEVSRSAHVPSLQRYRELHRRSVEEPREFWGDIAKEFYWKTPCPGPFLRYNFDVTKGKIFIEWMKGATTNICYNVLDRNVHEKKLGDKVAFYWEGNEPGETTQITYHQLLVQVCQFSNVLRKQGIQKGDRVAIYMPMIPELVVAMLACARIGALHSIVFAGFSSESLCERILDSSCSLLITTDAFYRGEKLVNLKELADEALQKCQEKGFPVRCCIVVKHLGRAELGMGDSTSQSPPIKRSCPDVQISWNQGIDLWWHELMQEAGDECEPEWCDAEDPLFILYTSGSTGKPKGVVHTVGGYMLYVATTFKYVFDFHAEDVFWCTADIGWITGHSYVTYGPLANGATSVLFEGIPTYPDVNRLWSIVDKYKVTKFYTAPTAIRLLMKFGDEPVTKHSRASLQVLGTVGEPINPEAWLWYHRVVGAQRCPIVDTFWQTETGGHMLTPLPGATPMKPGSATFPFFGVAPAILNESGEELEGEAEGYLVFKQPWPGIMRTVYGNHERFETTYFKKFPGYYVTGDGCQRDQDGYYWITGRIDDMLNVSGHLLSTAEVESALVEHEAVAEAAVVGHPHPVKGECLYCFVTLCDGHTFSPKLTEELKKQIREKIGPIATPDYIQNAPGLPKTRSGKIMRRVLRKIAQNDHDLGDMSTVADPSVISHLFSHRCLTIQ
# assay_protocol: ACSS2 enzyme assay (acetyl-CoA formation, LC-MS/MS)
# stated_conditions: cytosolic fraction of BT474 cells as ACSS2 source; 100 μM acetate, CoA and ATP; 2 h at 25° C.; read-out: Enzyme Activity (IC50 range)
pIC50: −log10 of the molar value.

// known answers, use as guide
CCC(O)CNC(=O)Nc1ccc2nc(-c3ccc(OC)nc3)c(-c3ccc(OC)nc3)cc2c1 (centres unmarked) : ≥ 6.00
CCC(O)CNC(=O)Nc1ccc2nc(-c3cccnc3)c(-c3cccnc3)cc2c1 (centres unmarked) : > 7.00
CC[C@H](O)CNC(=O)Nc1ccc2nc(-c3ccccc3)c(-c3ccccc3)cc2c1 : > 7.00
CCOc1ccccc1-c1nc2ccc(NC(=O)NCC(O)CC)cc2cc1-c1ccccc1 (centres unmarked) : > 7.00
CC[C@H](O)CNC(=O)Nc1ccc2nc(-c3ccccc3OC)c(-c3ccccc3F)cc2c1 : > 7.00
CCC(F)(F)CNC(=O)Nc1ccc2nc(-c3ccccc3)c(-c3ccccc3)c(C(N)=O)c2c1 : > 7.00
CCC(O)CNC(=O)Nc1ccc2nc(-c3ccncc3)c(-c3ccccc3F)cc2c1 (centres unmarked) : > 7.00

API: the following record is the query input.
Using human ACSS2 (Homo sapiens, UniProt Q9NR19) as the test system, report measured pIC50 of CCC(O)CNC(=O)Nc1ccc2nc(C(F)(F)F)c(-c3ccccc3)cc2c1 (centres unmarked) .
≥ 5.00

====

# experimental_target: human ACSS2 (Homo sapiens)
# Construct: The cytosolic fraction of BT474 cells was used as a source of the ACSS2 enzyme; endogenous in cells
# assay_protocol: ACSS2 enzyme assay (acetyl-CoA formation, LC-MS/MS)
# stated_conditions: cytosolic fraction of BT474 cells as ACSS2 source; 100 μM acetate, CoA and ATP; 2 h at 25° C.; read-out: Enzyme Activity (IC50 range)
# Description: Novel compounds were screened in a human ACSS2 enzyme assay. Briefly, the ACSS2 enzyme reaction was monitored by directly measuring acetyl-CoA formation. The cytosolic fraction of BT474 cells was used as a source of the ACSS2 enzyme. A short protocol for this assay is provided below. Preparation of Cytosolic Fraction from BT474 Cells 9×10^6 cells were harvested by trypsinization followed by centrifugation. […]
pIC50: −log10 of the molar value.
pIC50 for assorted compounds

// known answers, use as guide
CC[C@@H](O)CNC(=O)Nc1ccc2nc(-c3ccccc3)c(C)c(C(=O)NCc3cnn(C)c3)c2c1 : > 7.00
CCC(O)CNC(=O)Nc1ccc2nc(-c3ccccc3)c(-c3ccccc3OC)cc2c1 (centres unmarked) : > 7.00
O=C(Nc1ccncc1)Nc1ccc2nc(-c3ccccc3)c(-c3ccccc3)cc2c1 : < 5.00
CC[C@@H](O)CNC(=O)Nc1ccc2nc(-c3ccccc3)c(-c3ccccc3)c(C(=O)Nc3ccn(C)n3)c2c1 : > 7.00
CC[C@@H](O)CNC(=O)Nc1ccc2nc(-c3ccccc3F)c(-c3ccccc3F)cc2c1 : > 7.00

Answer with the recorded pIC50 for the compound listed here: `CCCCNC(=O)Nc1ccc2nc(-c3ccccc3F)c(-c3ccccc3F)cc2c1`
> 7.00

Answer with the recorded pIC50 for the compound listed here: CCC(O)CNC(=O)Nc1ccc2nc(-c3ccc(=O)[nH]c3)c(-c3ccc(=O)[nH]c3)cc2c1 (centres unmarked)
≥ 6.00

Answer with the recorded pIC50 for the compound listed here: `CC[C@@H](O)CNC(=O)Nc1ccc2nc(-c3ccccc3)c(-c3ccccc3)c(C(N)=O)c2c1`
> 7.00

Answer with the recorded pIC50 for the compound listed here: `CC[C@@H](O)CNC(=O)Nc1ccc2nc(C)c(-c3ccccc3F)cc2c1-c1ccc[nH]c1=O`
> 7.00

Answer with the recorded pIC50 for the compound listed here: `CC[C@@H](O)CNC(=O)Nc1ccc2nc(C)c(-c3ccccc3F)cc2c1`
> 7.00

Answer with the recorded pIC50 for the compound listed here: CCC(O)CNC(=O)Nc1ccc2nc(-c3ccccc3NC(C)=O)c(-c3ccccc3F)cc2c1 (centres unmarked)
> 7.00

Answer with the recorded pIC50 for the compound listed here: CCC(O)CNC(=O)Nc1ccc2nc(-c3ccccc3)c(-c3ccccc3)c(N)c2c1 (centres unmarked)
> 7.00

Answer with the recorded pIC50 for the compound listed here: CCC(O)CNC(=O)Nc1ccc2nc(-c3ccccc3)c(-c3ccccc3)c(C(=O)N(C)C)c2c1 (centres unmarked)
> 7.00

Answer with the recorded pIC50 for the compound listed here: `CC[C@@H](O)CNC(=O)Nc1ccc2nc(C)c(-c3ccccc3)cc2c1`
> 7.00

Answer with the recorded pIC50 for the compound listed here: `C=CCNC(=O)Nc1ccc2nc(-c3ccccc3)c(-c3ccccc3)cc2c1`
≥ 6.00

Answer with the recorded pIC50 for the compound listed here: CCC(O)CNC(=O)Nc1ccc2nc(-c3ccccc3)c(-c3ccccc3)c(C(=O)NC3CC3)c2c1 (centres unmarked)
> 7.00

Answer with the recorded pIC50 for the compound listed here: CCC(O)CNC(=O)Nc1ccc2nc(-c3ccccc3OC)c(-c3ccccc3F)cc2c1 (centres unmarked)
> 7.00

Answer with the recorded pIC50 for the compound listed here: CCC(O)CNC(=O)Nc1ccc2nc(-c3ccccc3)c(-c3ccccc3)c(N(C)C)c2c1 (centres unmarked)
> 7.00

Answer with the recorded pIC50 for the compound listed here: CCC(O)CNC(=O)Nc1ccc2nc(-c3ccccc3)c(-c3ccccc3)c(-c3ncco3)c2c1 (centres unmarked)
> 7.00

Answer with the recorded pIC50 for the compound listed here: CCC(O)CNC(=O)Nc1ccc2nc(-c3ccccc3OCC(C)C)c(-c3ccccc3)cc2c1 (centres unmarked)
> 7.00

Answer with the recorded pIC50 for the compound listed here: CN1CCC(NC(=O)Nc2ccc3nc(-c4ccccc4)c(-c4ccccc4)cc3c2)C1 (centres unmarked)
≥ 5.00

Answer with the recorded pIC50 for the compound listed here: `CCCCNC(=O)Nc1ccc2nc(C)c(-c3ccccc3)cc2c1`
≥ 6.00

Answer with the recorded pIC50 for the compound listed here: CCC(O)CNC(=O)Nc1ccc2nc(-c3ccnc(O)c3)c(-c3ccnc(O)c3)cc2c1 (centres unmarked)
< 5.00
